Hello, the source for this data is the supplement of paper PMC6555819, in case you need it.

Test system: PPARg DBDmut:RXRa IVT, anti-PPARg (DBD mutation: PPARg1 K132A/R137A, NR concentration 270 nM, RXRa partner concentration 90 nM)
Experiment: PBM binding z-score (relative to random genomic background probes); higher = stronger binding; sequences stand for … in GC…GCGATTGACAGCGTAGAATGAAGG
measureName: PBM binding z-score

* AGTCAAAGTTCATCTAGGTAACGAAAGATATGCT | 1.97
* TAGCCTAGGTTATGCGGGCCAGTATAGTGTCGGC | -0.658
* CCTACTGGGCCATCAGGTGATTGATATCAACGTT | 0.38
* TATTGTAGATCAAAGGTTAAGAAAGCCGAAGCCT | 1.1
* CGTCCAAGGTCAATGCTAGCTCAGTGAAAGCATT | -0.245
* CAAACTAGGTCACAGAGGTCGAAGTCCGTGCGTA | 2.27
* CGTCCAAGGTCAGCAGGTCAGAGAAAGCGACGTG | 0.0227
* AATACAGGGTCACTAGGCCCGAGTAGGTACGAAT | 2.04
* GGTACGAGGGCAAAGTTGATAGCATCTGTCGACG | 0.0227
* TGGCCTAGGTCATGCGGGCCAGTATAGTGTCGGC | -0.76
* AGTCAAAGTTCACGAGGTAACGTAAGATTCAGCT | 1.17
* CCAGACAGGTGAAAGGTAACTCCGTCTGGTACGC | -0.44
* AGTCAAAGTTCAGTAGGTAACGTAAGATTCAGCT | 0.804
* CAAACTAGGTCACGAAAGGTCAAATTCGAATGAC | 3.89
* AGTCAAAGTTCATCTGGGTAACGTAAGATATGCT | 0.881
* ACTTACGGGTCAACGACGTTATAGCACGCGTATA | 1.35
* CCGACTGGGGCAACGGTTACCATACTCAGTACGA | -0.196
* CCTACTGGGCCATTCAGAGGTTATTGATCATATG | 0.418
* GATACAGGGTCAGCTTGAGGCCAGAGTATGGAAA | -0.407
* ATCGAAAGGTCGACGAGGTGAGAATACACCGTTT | 0.449
* AGTCGGAGGACAAAGGTCAGAGCTACGCCAGTGA | 0.374
* ATACCAAGGTTATCGTGAGGTCGTTGATACTAAC | 1.06
* CAAACTAGGTCACGAGGTCAAAGTCCGCTTCCCG | 2.5
* CCTAGTGGGTCAGGAGGTCACACACCGGATATGA | 0.727
* CGTCCAAGGGCAATGCTAGGTCAGTGAAAGCATT | -1.98
* CCTACTGGGCCACGAAAGGGCATTGATTCAGTGA | 0.311
